- System: Saccharomyces cerevisiae;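 further: PSI is a weighted mean of sequencing reads over stability bins, variants kept only with over 10 reads, mCherry proximal and sfGFP distal, peptide attached via GGGS linker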
- Protocol Description: protein stability index of tFT-peptide fusion (C-terminal peptide) (PSI (0-1 scale)); higher = more stable (slower turnover)
- Test Conditions: genetic background: wild type; temperature: 30 C
# Lookup of reported protein stability index keyed by entry

{"Item Sequence": "GRSPEIGPHIVN", "protein stability index": 0.699}
{"Item Sequence": "YYAFITERYRHN", "protein stability index": 0.607}
{"Item Sequence": "GGRRTLFCRFSY", "protein stability index": 0.702}
{"Item Sequence": "NINYETNKQTDR", "protein stability index": 0.668}
{"Item Sequence": "PPPPPLPALPHL", "protein stability index": 0.627}
{"Item Sequence": "VVLSRSLTDLVR", "protein stability index": 0.677}
{"Item Sequence": "PSAPPSLPFLPY", "protein stability index": 0.692}
{"Item Sequence": "RDGGVHVFATLM", "protein stability index": 0.626}
{"Item Sequence": "DKSEINKPTKGK", "protein stability index": 0.675}
